Structures can show the parent of a compound that is named as a salt.
experimental_readout: melting point

See these solved cases before continuing.
                                   compound  endpoint_value
0  O=C1Nc2cc(-c3ccccc3)ccc2CN1c1csc(-c2ccncc2)n1 [Example 12]   248 to 250 °C
1  O=C1Nc2cccc(OCCN3CCOCC3)c2CN1c1nc(-c2ccncc2)ns1 (as salt: salt) [Example 51]   259 to 260 °C
2  O=C1Nc2ccccc2CN1c1nc(-c2ccc(F)c(F)c2)cs1 [Example 39]   289 to 293 °C
3  O=C1Nc2ccccc2CN1c1nc(-c2cccnc2)cs1 [Example 18]   269 to 272 °C
4  O=C1Nc2cccc(Br)c2CN1c1csc(-c2ccncc2)n1 [Example 6]   283 to 284 °C
5  O=C1Nc2cccc(F)c2CN1c1csc(-c2ccncc2)n1 [Example 13]   247 to 249 °C

We now examine a further compound.
Reported melting point of O=C1Nc2cccc(CN3CCCCC3)c2CN1c1csc(-c2ccncc2)n1 (as salt: HCl) [Example 15] : 278 to 280 °C
